Hey, just so you know, these numbers are from paper PMC10028969.

system: T. b. brucei Lister 427; assay: SYBR Green viability assay with T. brucei; format: cell-based; conditions: Trypanosoma brucei, 72 h, read-out: T. b. brucei Lister 427 EC50 (nM) ± SD

[
  {
    "Compound": "N=C(N)c1ccc(OCCCCCOc2ccc(C(=N)N)cc2)cc1 [Pentamidine, pentamidine]",
    "Study Target": "T. b. brucei Lister 427",
    "Units Label": "nM",
    "EC50": 69.6
  }
]
